Assay: Toxicity liver stage against HepG2, at 10uM
Assay type: cell-based
Design: test concentration 10 uM, cell line HepG2-A16-CD81EGFP
Settings: human, HepG2-A16-CD81EGFP cells; read-out: INHIBITION
cytotoxicity at 10 µM: recorded values

[
  {
    "COMPOUND": "CC1(C)CNC(=O)c2nc(-c3nnn[nH]3)[nH]c2C1",
    "OUTPUT_UNIT": "%",
    "cytotoxicity at 10 µM": -5.69
  },
  {
    "COMPOUND": "CCOC1COC2(CCN(Cc3cccnc3OC)CC2)C1 (centres undefined)",
    "OUTPUT_UNIT": "%",
    "cytotoxicity at 10 µM": -2.47
  },
  {
    "COMPOUND": "CCn1ccc(NC(=O)CN2C(=O)C(C)(C)c3ccccc32)n1",
    "OUTPUT_UNIT": "%",
    "cytotoxicity at 10 µM": -16.9
  },
  {
    "COMPOUND": "CCc1nc(C2CCCN2Cc2ccno2)no1 (centres undefined)",
    "OUTPUT_UNIT": "%",
    "cytotoxicity at 10 µM": 2.52
  },
  {
    "COMPOUND": "CN(Cc1cccc(OCCO)c1)Cc1cccc2ncccc12",
    "OUTPUT_UNIT": "%",
    "cytotoxicity at 10 µM": 26
  },
  {
    "COMPOUND": "Cc1ccc(CN2CCC3(CC2)CCN(Cc2ccco2)CC3)cc1",
    "OUTPUT_UNIT": "%",
    "cytotoxicity at 10 µM": 2.44
  },
  {
    "COMPOUND": "CCn1nc2c(cc1=O)CN(CC(=O)Nc1cc(C(C)C)no1)CC2",
    "OUTPUT_UNIT": "%",
    "cytotoxicity at 10 µM": -5.46
  },
  {
    "COMPOUND": "CN1CC[C@@H]2[C@@H](CO[C@H]2CNC(=O)c2nccn2C)C1",
    "OUTPUT_UNIT": "%",
    "cytotoxicity at 10 µM": -113
  },
  {
    "COMPOUND": "COc1cccc(-c2cc(C(=O)Nc3nc[nH]n3)[nH]n2)c1",
    "OUTPUT_UNIT": "%",
    "cytotoxicity at 10 µM": -5.51
  },
  {
    "COMPOUND": "Cc1cc(C(=O)N(C)Cc2cccs2)nc(N2CCCC2)n1",
    "OUTPUT_UNIT": "%",
    "cytotoxicity at 10 µM": 7.85
  },
  {
    "COMPOUND": "Cc1nc(C2CCCC2)sc1C(N)=O",
    "OUTPUT_UNIT": "%",
    "cytotoxicity at 10 µM": -5.03
  },
  {
    "COMPOUND": "Cn1nc(CNC(=O)c2cccc(C(F)(F)F)c2)c2c1CCOC2",
    "OUTPUT_UNIT": "%",
    "cytotoxicity at 10 µM": 4.07
  },
  {
    "COMPOUND": "CN(C)CCN1CCOCC2(C1)CN(Cc1ccco1)CCO2 (centres undefined)",
    "OUTPUT_UNIT": "%",
    "cytotoxicity at 10 µM": -111
  },
  {
    "COMPOUND": "Cn1ncc2c1CCCC2NCc1ccc(Br)s1 (centres undefined)",
    "OUTPUT_UNIT": "%",
    "cytotoxicity at 10 µM": -4.41
  },
  {
    "COMPOUND": "Fc1cc(CN2CCOC3(CCOCC3)C2)ccc1Cl",
    "OUTPUT_UNIT": "%",
    "cytotoxicity at 10 µM": -4.57
  },
  {
    "COMPOUND": "COC(=O)N1CCCC(C(=O)NCCc2c[nH]c3cc(C)ccc23)C1 (centres undefined)",
    "OUTPUT_UNIT": "%",
    "cytotoxicity at 10 µM": -5.95
  },
  {
    "COMPOUND": "O=C(NCc1ccco1)[C@@]12CCO[C@@H]1CCN(CCN1CCCC1)C2",
    "OUTPUT_UNIT": "%",
    "cytotoxicity at 10 µM": -3.47
  },
  {
    "COMPOUND": "COc1cccc2ccn(CCC(=O)N3CCCC(C(=O)O)C3)c12 (centres undefined)",
    "OUTPUT_UNIT": "%",
    "cytotoxicity at 10 µM": -9.42
  },
  {
    "COMPOUND": "CC(C)c1nc(CN2CCCN(Cc3nccn3C)CC2)no1",
    "OUTPUT_UNIT": "%",
    "cytotoxicity at 10 µM": 1.13
  },
  {
    "COMPOUND": "O=C(COC[C@]12COC[C@H]1CN(C1CCC1)C2)N1CCCC1",
    "OUTPUT_UNIT": "%",
    "cytotoxicity at 10 µM": -102
  },
  {
    "COMPOUND": "O=C(CN1CCCC1c1noc(C2CC2)n1)NCCc1ccsc1 (centres undefined)",
    "OUTPUT_UNIT": "%",
    "cytotoxicity at 10 µM": 2.82
  },
  {
    "COMPOUND": "CC1=N[C@@]2(CC[C@@H]3CN(S(=O)(=O)CC(C)C)C[C@@H]32)C(=O)N1CC(C)C",
    "OUTPUT_UNIT": "%",
    "cytotoxicity at 10 µM": -1.34
  },
  {
    "COMPOUND": "CC(C)S(=O)(=O)N1CCCC(c2cccc(C(=O)O)c2)C1 (centres undefined)",
    "OUTPUT_UNIT": "%",
    "cytotoxicity at 10 µM": -2.18
  },
  {
    "COMPOUND": "CCc1nc(CN(C(C)=O)C2CCN(Cc3ccccc3F)C2)no1 (centres undefined)",
    "OUTPUT_UNIT": "%",
    "cytotoxicity at 10 µM": -12.3
  }
]

====

Assay: Toxicity liver stage against HepG2, at 10uM
Assay type: cell-based
Parameters: test concentration 10 uM, cell line HepG2-A16-CD81EGFP
Conditions: human, HepG2-A16-CD81EGFP cells; read-out: INHIBITION
cytotoxicity at 10 µM: recorded values

[
  {
    "COMPOUND": "CC(Cn1cccn1)NC(=O)Cc1cccs1 (configuration not stated)",
    "cytotoxicity at 10 µM / %": 4.93
  },
  {
    "COMPOUND": "CN(C)C(=O)Cc1nc(CN2CCCCC2Cn2cncn2)cs1 (configuration not stated)",
    "cytotoxicity at 10 µM / %": -0.868
  },
  {
    "COMPOUND": "CCn1cc(-c2cc(C(F)(F)F)nn2CCC#N)cn1",
    "cytotoxicity at 10 µM / %": 3.93
  },
  {
    "COMPOUND": "O=C(CO)N1CCC(CCc2ccnc(Nc3cnccn3)c2)CC1",
    "cytotoxicity at 10 µM / %": -0.459
  },
  {
    "COMPOUND": "CC(C)c1cccc(S(=O)(=O)NCCCN2CCC(O)CC2)c1",
    "cytotoxicity at 10 µM / %": 12.9
  },
  {
    "COMPOUND": "COc1nc(N2CCNCC2)ncc1Br",
    "cytotoxicity at 10 µM / %": 5.2
  },
  {
    "COMPOUND": "CCc1ncc2c(n1)CN(c1nccc(C3CCCC3)n1)C2",
    "cytotoxicity at 10 µM / %": -1.16
  },
  {
    "COMPOUND": "COCc1nn(C(C)C)c2c1CCN(Cc1ccc(C)o1)C2",
    "cytotoxicity at 10 µM / %": 2.32
  },
  {
    "COMPOUND": "O=C(Nc1nc2c(s1)CN(S(=O)(=O)C1CC1)CC2)c1ccc(=O)[nH]c1",
    "cytotoxicity at 10 µM / %": -11.1
  },
  {
    "COMPOUND": "Cc1ccc2c(c1)C(N(C)C)CC21CCN(CCO)CC1 (configuration not stated)",
    "cytotoxicity at 10 µM / %": 3.62
  },
  {
    "COMPOUND": "O=C1CCCCN1CCc1nc(C2(c3ccc(F)cc3)CCOC2)no1 (configuration not stated)",
    "cytotoxicity at 10 µM / %": 3.82
  },
  {
    "COMPOUND": "Cc1c(C2CC(=O)Nc3c2cnn3C(C)(C)C)cnn1C (configuration not stated)",
    "cytotoxicity at 10 µM / %": -2.89
  }
]
